experiment: Acute toxicity in mice; settings: mouse, in vivo, po
Where a name gives a salt, the structure may show the parent alone.
MEASURED_PROPERTY: NOAEL at 24 h
Enter the number, and then the unit.

Lab note: measured NOAEL at 24 h of CN(C)C[C@@H]1C[C@H]2C[C@@H]1c1ccccc12 (relative stereo) [Compound A, hydrochloride] was 200 mg/kg/day

* * *

test: Subacute toxicity in mice; details: mouse, in vivo, po
Structures can show the parent of a compound that is named as a salt.
MEASURED_PROPERTY: NOAEL at 408 h (mg/kg/day)
Numeric only. Scale: mg/kg/day

Lab note: measured NOAEL at 408 h of CN(C)C[C@@H]1C[C@H]2C[C@@H]1c1ccccc12 (relative stereo) [Compound A, hydrochloride] was 300

* * *

assay: in vivo; settings: mouse, ip
Where a name gives a salt, the structure may show the parent alone.
MEASURED_PROPERTY: NOAEL at 408 h (mg/kg/day)
Numeric only. Scale: mg/kg/day

Lab note: measured NOAEL at 408 h of CN(C)C[C@H]1[C@@H](N)[C@@H]2C[C@H]1c1ccccc12 (relative stereo) [Compound B, dihydrochloride] was 400

* * *

test: Subacute toxicity in mice; conditions: mouse, in vivo, ip
Where a name gives a salt, the structure may show the parent alone.
MEASURED_PROPERTY: NOAEL at 408 h (mg/kg/day)
Numeric only. Scale: mg/kg/day

Lab note: measured NOAEL at 408 h of CN(C)C[C@@H]1C[C@H]2C[C@@H]1c1ccccc12 (relative stereo) [Compound A, hydrochloride] was 25

* * *

assay: in vivo; conditions: mouse, ip
Counter-ions that a name gives are not always drawn.
MEASURED_PROPERTY: NOAEL at 24 h

Lab note: measured NOAEL at 24 h of CN(C)C[C@H]1[C@@H](N)[C@@H]2C[C@H]1c1ccccc12 (relative stereo) [Compound B, dihydrochloride] was > 750 mg/kg/day

* * *

experiment: Acute toxicity in mice; conditions: mouse, in vivo, ip
Where a name gives a salt, the structure may show the parent alone.
MEASURED_PROPERTY: NOAEL at 24 h (mg/kg/day)
Numeric only. Scale: mg/kg/day

Lab note: measured NOAEL at 24 h of CN(C)C[C@@H]1C[C@H]2C[C@@H]1c1ccccc12 (relative stereo) [Compound A, hydrochloride] was 25

* * *

experiment: in vivo; settings: mouse, po
Counter-ions that a name gives are not always drawn.
MEASURED_PROPERTY: NOAEL at 24 h

Lab note: measured NOAEL at 24 h of CN(C)C[C@H]1[C@@H](N)[C@@H]2C[C@H]1c1ccccc12 (relative stereo) [Compound B, dihydrochloride] was > 750 mg/kg/day

* * *

Recorded measurements of LD50 at 24 h, one per entry
experiment: Acute toxicity in mice; conditions: mouse, in vivo, po
Where a name gives a salt, the structure may show the parent alone.

[
  {
    "MOLECULE": "CN(C)C[C@H]1[C@@H](N)[C@@H]2C[C@H]1c1ccccc12 (relative stereo) [Compound B, dihydrochloride]",
    "MEASURED_PROPERTY": "LD50 at 24 h",
    "RECORDED_RESULT": "> 750 mg/kg"
  }
]

Turning now to a further record.
Lab note: measured LD50 at 24 h of CN(C)C[C@@H]1C[C@H]2C[C@@H]1c1ccccc12 (relative stereo) [Compound A, hydrochloride] was > 750 mg/kg

* * *

assay: in vitro; conditions: human, g-2 cells, Cytotoxicity CTD0, maximal non-toxic concentration
Counter-ions that a name gives are not always drawn.
MEASURED_PROPERTY: MNTC (µg/mL)
Numeric only. Scale: µg/mL

Consider the following illustrative entries.
[
  {
    "COMPOUND": "CN(C)C[C@@H]1C[C@H]2C[C@@H]1c1ccccc12 (relative stereo) [Compound A, hydrochloride]",
    "VALUE_UNIT": "µg/mL",
    "MNTC": 75
  },
  {
    "COMPOUND": "NC12CC3CC(CC(C3)C1)C2 [AMANTADINE HYDROCHLORIDE, reference compound]",
    "VALUE_UNIT": "µg/mL",
    "MNTC": 100
  }
]

Turning now to a further record.
Lab note: measured MNTC of CN(C)C[C@H]1[C@@H](N)[C@@H]2C[C@H]1c1ccccc12 (relative stereo) [Compound B, dihydrochloride] was 50

Where do these numbers come from? They come from patent US4362746A.
